- procedure.details: Multicomponent pharmacokinetics in rat plasma after i.v. safflower injection (SI)
- experimental.parameters: male, Sprague-Dawley, rat, plasma, iv, 4 ml/kg
quantity.kind: MRT last (min)
Give bare numbers, in min.

// known answers, use as guide
C[C@@H]1O[C@@H](OC[C@H]2O[C@@H](Oc3c(-c4ccc(O)c(O)c4)oc4cc(O)cc(O)c4c3=O)[C@H](O)[C@@H](O)[C@@H]2O)[C@H](O)[C@H](O)[C@H]1O    13.2
O=C(O)[C@H]1O[C@@H](Oc2cc3oc(-c4ccc(O)cc4)cc(=O)c3c(O)c2O)[C@H](O)[C@@H](O)[C@@H]1O    94.2
O=Cc1ccc(O)cc1 [p-HBA, p-hydroxybenzaldehyde]    19.2

Now for the molecule whose MRT last we want.
Ask: Which MRT last is listed for "O=C(O)/C=C/c1ccc(O)cc1" ?
Reply: 15
